# protocol text: Vz of compound was determined in rat
# Format: ADME, organism-based
# applied conditions: in vivo, read-out: Vz
# cutoff 6 L/kg applies to Vd; >= gives TRUE, < gives FALSE

NS(=O)(=O)c1ccccc1-c1ccc(C(=O)NC(CC(=O)Nc2ccc(Br)cn2)C(=O)O)cc1 (stereo not given) : FALSE

-- ask // inclusive: Vd at least 6 L/kg? input: NS(=O)(=O)c1ccccc1-c1ccc(C(=O)NCCC(=O)Nc2ccc(Br)cn2)cc1
-- reply FALSE

-- ask // inclusive: Vd at least 6 L/kg? input: CN(C)Cc1ccccc1-c1ccc(C(=O)N[C@@H](CC(=O)Nc2ccc(Cl)cn2)C(=O)N2CCCCC2)cc1
-- reply TRUE

-- ask // inclusive: Vd at least 6 L/kg? input: CN(C)Cc1ccccc1-c1ccc(C(=O)N[C@H](CC(=O)Nc2ccc(Cl)cn2)C(=O)N2CCCCC2)cc1
-- reply TRUE

====

# protocol text: Plasma clearance of compound was determined in rat
# Type: ADME, organism-based
reported property: clearance (mL/min/kg)
Give bare numbers, in mL/min/kg.

Dear colleague, could you please provide clearance for the compounds listed below?
1. CN(C)Cc1ccccc1-c1ccc(C(=O)N[C@@H](CC(=O)Nc2ccc(Cl)cn2)C(=O)N2CCCCC2)cc1
2. CN(C)Cc1ccccc1-c1ccc(C(=O)N[C@H](CC(=O)Nc2ccc(Cl)cn2)C(=O)N2CCCCC2)cc1
3. NS(=O)(=O)c1ccccc1-c1ccc(C(=O)NC(CC(=O)Nc2ccc(Br)cn2)C(=O)N2CCCCC2)cc1 (stereo not given)
4. NS(=O)(=O)c1ccccc1-c1ccc(C(=O)NCCC(=O)Nc2ccc(Br)cn2)cc1
5. NS(=O)(=O)c1ccccc1-c1ccc(C(=O)NC(CC(=O)Nc2ccc(Br)cn2)C(=O)O)cc1 (stereo not given)

-- reply
1: 124; 2: 178; 3: 50.6; 4: 35; 5: 6.7

====

Hi there, I'd appreciate the recorded IC50 for every entry that follows.
# protocol text: In vitro inhibitory activity against Factor Xa
One number for each entry, in nM.

Check out these entries, answers already filled in.
CN(C)C(=N)c1ccc(C(=O)N[C@H](CC(=O)Nc2ccc(Br)cn2)C(=O)N2CCCCC2)cc1 : 4.6
NS(=O)(=O)c1ccccc1-c1ccc(NC(=O)CCC(=O)Nc2ccc(Cl)cn2)cc1 : 37
NS(=O)(=O)c1ccccc1-c1ccc(C(=O)NCC(NC(=O)Nc2ccccc2)C(=O)Nc2ccc(Br)cn2)cc1 (centres undefined) : 8500

-- ask Which IC50 reading was recorded for the compound NS(=O)(=O)c1ccccc1-c1ccc(C(=O)NCCNS(=O)(=O)c2cc3cc(Cl)ccc3[nH]2)cc1 ?
-- reply 1900

====

# protocol text: In vitro inhibitory activity against Factor Xa
reported property: pIC50
One number for each entry, as −log10 of the molar value.

O=C(C[C@@H](NC(=O)c1ccc(-c2ccccc2CN2CCCC2)cc1)C(=O)N1CCCCC1)Nc1ccc(Cl)cn1 : 8.70
NS(=O)(=O)c1ccccc1-c1ccc(NC(=O)CCC(=O)Nc2ccc(Br)cc2)cc1 : 7.19

Could you now look at the following compound, please?
-- ask Which pIC50 reading was recorded for the compound NS(=O)(=O)c1ccccc1-c1ccc(NC(=O)C(CC(=O)Nc2ccc(Br)cn2)NC(=O)c2ccncc2)cc1 (stereo not drawn) ?
-- reply 7.36

====

# protocol text: In vitro inhibitory activity against Factor Xa
reported property: pIC50
Answers are plain numbers, as −log10 of the molar value.

Dear colleague, could you please provide pIC50 for the molecules listed below?
1. CNCCNC(=O)C(CC(=O)Nc1ccc(Br)cn1)NC(=O)c1ccc(-c2ccccc2S(N)(=O)=O)cc1 (centres undefined)
2. NS(=O)(=O)c1ccccc1-c1ccc(C(=O)NC(CC(=O)Nc2ccc(Br)cn2)C(=O)NC2CCCC2)cc1 (centres undefined)
3. CC(=O)NC(CNC(=O)c1ccc(-c2ccccc2S(N)(=O)=O)cc1)C(=O)Nc1ccc(Br)cn1 (centres undefined)
4. NS(=O)(=O)c1ccccc1-c1ccc(NC(=O)C(CC(=O)Nc2ccc(Br)cn2)NC(=O)C(F)(F)F)cc1 (centres undefined)

-- reply
7.36
7.80
6.09
6.70

====

# protocol text: In vitro inhibitory activity against Factor Xa
pIC50: −log10 of the molar value.
# cutoff 8 applies to pIC50; >= gives 1, < gives 0

NS(=O)(=O)c1ccccc1-c1ccc(NC(=O)/C=C/C(=O)Nc2ccc(Cl)cc2)cc1 (stereo in doubt; cis) : 0
COc1ccc(C(=O)NCCNC(=O)c2ccc(-c3ccccc3S(N)(=O)=O)cc2)cc1 : 0
O=C(C[C@@H](NC(=O)c1ccc(-c2ccccc2CN2CCOCC2)cc1)C(=O)N1CCCCC1)Nc1ccc(Cl)cn1 : 1
COCCN(C)Cc1ccccc1-c1ccc(C(=O)N[C@H](CC(=O)Nc2ccc(Cl)cn2)C(=O)N2CCCCC2)cc1 : 1

-- ask // inclusive: pIC50 at least 8? input: NS(=O)(=O)c1ccccc1-c1ccc(C(=O)NCCNC(=O)c2ccc(Cl)s2)cc1
-- reply 1

-- ask // inclusive: pIC50 at least 8? input: NS(=O)(=O)c1ccccc1-c1ccc(C(=O)NCCNC(=O)c2ccc(Br)cc2)cc1
-- reply 0

-- ask // inclusive: pIC50 at least 8? input: CN(C)Cc1nccn1-c1ccc(C(=O)N[C@H](CC(=O)Nc2ccc(Br)cn2)C(=O)N2CCCCC2)cc1
-- reply 1

-- ask // inclusive: pIC50 at least 8? input: CN1CCN=C1c1ccc(C(=O)N[C@H](CC(=O)Nc2ccc(Cl)cn2)C(=O)N2CCCCC2)cc1
-- reply 0

====

# protocol text: Half-life of compound was determined in rat
# Type: ADME
# applied conditions: in vivo
Please use true for half-life under 2 h and false for everything else, ties included.

Examples with answers:
NS(=O)(=O)c1ccccc1-c1ccc(C(=O)NCCC(=O)Nc2ccc(Br)cn2)cc1 : true
CN(C)Cc1ccccc1-c1ccc(C(=O)N[C@H](CC(=O)Nc2ccc(Cl)cn2)C(=O)N2CCCCC2)cc1 : true
NS(=O)(=O)c1ccccc1-c1ccc(C(=O)NC(CC(=O)Nc2ccc(Br)cn2)C(=O)N2CCCCC2)cc1 (stereo not given) : true
CN(C)Cc1ccccc1-c1ccc(C(=O)N[C@@H](CC(=O)Nc2ccc(Cl)cn2)C(=O)N2CCCCC2)cc1 : false

Could you now look at the following molecule, please?
-- ask Does this molecule meet the criterion half-life < 2 h? NS(=O)(=O)c1ccccc1-c1ccc(C(=O)NC(CC(=O)Nc2ccc(Br)cn2)C(=O)O)cc1 (stereo not given)
-- reply true

====

# protocol text: In vitro inhibitory activity against Factor Xa
Hi there, I'd appreciate the recorded IC50 for every entry that follows.
Answers are plain numbers, in nM.

Check out these entries, answers already filled in.
CN(C)Cc1ccccc1-c1ccc(C(=O)N[C@@H](CC(=O)Nc2ccc(Cl)cn2)C(=O)N2CCCCC2)cc1 : 2.9
CN1CCN(C(=O)C(CC(=O)Nc2ccc(Br)cn2)NC(=O)c2ccc(-c3ccccc3S(N)(=O)=O)cc2)CC1 (stereo not drawn) : 26.5
CCCCOC(=O)NC(CNC(=O)c1ccc(-c2ccccc2S(N)(=O)=O)cc1)C(=O)Nc1ccc(Br)cn1 (stereo not drawn) : 1250

Dear colleague, could you please provide IC50 for the molecules listed below?
1. CN(C)Cc1nccn1-c1ccc(C(=O)N[C@@H](CC(=O)Nc2ccc(Cl)cn2)C(=O)N2CCCCC2)cc1
2. NS(=O)(=O)c1ccccc1-c1ccc(C(=O)NCCNC(=O)c2cccc(Cl)c2)cc1
3. NS(=O)(=O)c1ccccc1-c1ccc(C(=O)NCCC(=O)Nc2ccc(Br)cc2)cc1

-- reply
9.2
1500
29

-- ask Which IC50 reading was recorded for the molecule CN(C)Cc1ccccc1-c1ccc(C(=O)N[C@H](CC(=O)Nc2ccc(Br)cn2)C(=O)N2CCCCC2)cc1 ?
-- reply 0.65

====

# protocol text: In vitro inhibitory activity against Factor Xa
reported property: log10(IC50) (log10 of the value in nM)
Please interpret these as log10 of IC50 where IC50 is in nM.

Check out these entries, answers already filled in.
O=C(C[C@@H](NC(=O)c1ccc(-c2ccccc2CN2CCOCC2)cc1)C(=O)N1CCCCC1)Nc1ccc(Br)cn1 : 0.04
O=C(C[C@H](NC(=O)c1ccc(-c2ccccc2CN2CCOCC2)cc1)C(=O)N1CCCCC1)Nc1ccc(Cl)cn1 : 0.56
NS(=O)(=O)c1ccccc1-c1ccc(C(=O)NCCNC(=O)c2cc3cc(Cl)ccc3[nH]2)cc1 : 2.88
NS(=O)(=O)c1ccccc1-c1ccc(C(=O)NC(CC(=O)Nc2ccc(Br)cn2)C(=O)N2CCS(=O)(=O)CC2)cc1 (stereo not drawn) : 1.60
NS(=O)(=O)c1ccccc1-c1ccc(C(=O)NC(CC(=O)Nc2ccc(Br)cn2)C(=O)N2CCCC2)cc1 (stereo not drawn) : 1.16

Dear colleague, could you please provide log10(IC50) for the compounds listed below?
1. CN(C)Cc1nccn1-c1ccc(C(=O)N[C@H](CC(=O)Nc2ccc(Cl)cn2)C(=O)N2CCCCC2)cc1
2. NS(=O)(=O)c1ccccc1-c1ccc(NC(=O)CCC(=O)Nc2ccc(Br)cn2)cc1
3. CN(C)CCN(C)C(=O)C(CC(=O)Nc1ccc(Br)cn1)NC(=O)c1ccc(-c2ccccc2S(N)(=O)=O)cc1 (stereo not drawn)
4. NS(=O)(=O)c1ccccc1-c1ccc(NC(=O)CCNC(=O)c2ccc(Cl)s2)cc1
5. CN(C)CC(=O)NC(CC(=O)Nc1ccc(Br)cn1)C(=O)Nc1ccc(-c2ccccc2S(N)(=O)=O)cc1 (stereo not drawn)

-- reply
0.88
1.30
1.66
2.11
2.33

Dear colleague, could you please provide log10(IC50) for the compounds listed below?
1. CS(=O)(=O)NC(CNC(=O)c1ccc(-c2ccccc2S(N)(=O)=O)cc1)C(=O)Nc1ccc(Br)cn1 (stereo not drawn)
2. CN(C)Cc1ccccc1-c1ccc(C(=O)N[C@H](CC(=O)Nc2ccc(Cl)cn2)C(=O)N2CCCCC2)cc1
3. NS(=O)(=O)c1ccccc1-c1ccc(C(=O)NC(CC(=O)Nc2ccc(Br)cn2)C(=O)N2CCNCC2)cc1 (stereo not drawn)
4. NCC(=O)NC(CC(=O)Nc1ccc(Br)cn1)C(=O)Nc1ccc(-c2ccccc2S(N)(=O)=O)cc1 (stereo not drawn)
5. CN1CCN=C1c1ccc(C(=O)N[C@@H](CC(=O)Nc2ccc(Cl)cn2)C(=O)N2CCCCC2)cc1
6. COC(=O)C(CC(=O)Nc1ccc(Br)cn1)NC(=O)c1ccc(-c2ccccc2S(N)(=O)=O)cc1 (stereo not drawn)

-- reply
3.10
0.23
1.96
2.18
1.45
1.39
